Source of measurements: patent US20170052184A1

assayedSystem: T1, HCV Core 134-171-TT Peptide (hepatitis C virus (HCV-1 numbering) …)
T1 construct: also called ALRZ-9 peptide
experimentalDetails: SPR, captured mAb, peptide analyte
Lab note: compare koff with 0.0005 s⁻¹, writing criterion met if less and criterion not met if equal or more.

binder	assignedClass
HCV 208A-830 (antibody, V domains shown) VH: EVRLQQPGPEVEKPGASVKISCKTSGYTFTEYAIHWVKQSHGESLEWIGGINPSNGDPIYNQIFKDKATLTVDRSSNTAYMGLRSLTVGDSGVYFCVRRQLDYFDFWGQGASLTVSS VL: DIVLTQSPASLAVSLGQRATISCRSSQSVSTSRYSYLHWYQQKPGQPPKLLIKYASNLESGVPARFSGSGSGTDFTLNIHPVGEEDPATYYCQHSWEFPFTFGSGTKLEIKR	criterion not met
HCV 208A-638 (antibody, V domains shown) VH: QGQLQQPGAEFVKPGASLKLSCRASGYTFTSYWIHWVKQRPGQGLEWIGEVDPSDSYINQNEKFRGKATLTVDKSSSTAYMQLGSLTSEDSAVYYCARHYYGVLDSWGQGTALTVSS VL: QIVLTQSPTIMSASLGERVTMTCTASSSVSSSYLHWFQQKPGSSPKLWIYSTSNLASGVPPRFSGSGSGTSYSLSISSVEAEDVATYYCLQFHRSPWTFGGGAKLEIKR	criterion not met
HCV 208B-251 (antibody, V domains shown) VH: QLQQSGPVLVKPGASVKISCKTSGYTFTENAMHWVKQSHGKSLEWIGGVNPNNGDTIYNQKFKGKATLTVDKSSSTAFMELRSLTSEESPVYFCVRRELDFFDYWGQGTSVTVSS VL: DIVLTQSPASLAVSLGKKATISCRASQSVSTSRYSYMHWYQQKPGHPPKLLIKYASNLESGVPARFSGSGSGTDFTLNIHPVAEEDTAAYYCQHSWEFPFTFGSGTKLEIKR	criterion not met
HCV 208A-741 (antibody, V domains shown) VH: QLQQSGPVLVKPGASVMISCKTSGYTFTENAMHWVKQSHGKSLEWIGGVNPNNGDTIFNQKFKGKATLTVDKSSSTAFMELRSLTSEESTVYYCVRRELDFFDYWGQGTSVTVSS VL: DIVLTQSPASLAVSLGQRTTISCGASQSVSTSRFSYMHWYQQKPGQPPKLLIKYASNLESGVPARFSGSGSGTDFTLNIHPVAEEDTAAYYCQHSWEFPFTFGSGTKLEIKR	criterion not met
HCV 208B-1094 (antibody, V domains shown) VH: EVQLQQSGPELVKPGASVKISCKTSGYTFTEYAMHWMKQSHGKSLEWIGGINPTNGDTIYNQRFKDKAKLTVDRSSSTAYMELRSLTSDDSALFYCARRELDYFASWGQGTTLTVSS VL: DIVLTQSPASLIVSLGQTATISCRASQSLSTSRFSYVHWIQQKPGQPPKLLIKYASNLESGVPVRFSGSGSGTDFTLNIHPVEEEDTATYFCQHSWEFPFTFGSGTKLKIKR	criterion met
